meta.source: PubChem BioAssay AID330

- Test system: P388 leukemia ip, CD2F1 mice, survival T/C
- assay_text: NCI In Vivo Anticancer Drug Screen. Data for tumor model P388 Leukemia (intraperitoneal) in CD2F1 (CDF1) mice
- run_conditions: endpoint: median survival time; dose: 25.0 mg/kg/injection; schedule: Q01DX009 (ip); vehicle: saline with Tween-80
- Method: The antitumor activity of compounds was measured in mice bearing transplantable tumors. Survival or tumor size were measured and the results are expressed as the measurement made in the treated group (T) divided by the measurement made in the vehicle treated control group (C). The tumor model used in this assay is P388 Leukemia (intraperitoneal) in CD2F1 (CDF1) mice
Toxic doses and inconclusive results are not listed. How the source made its calls: active means survival T/C of 150% or more; inactive means T/C below 125% in these data.
Your reply should match one of these outcome classes. active, inactive

Q: How did this test come out for Cc1ccc(S(=O)(=O)N/N=C/c2ccccc2Cl)cc1 ?
Ans: inactive

Q: How did this test come out for COC1=C(OC)C(=O)C(OC)=C(OC)C1=O ?
Ans: inactive

Q: How did this test come out for C[C@@H]1CC2=CC(=O)CC[C@@H]2[C@H]2CC[C@@]3(C)[C@@H](CC[C@]3(C)O)[C@@H]21 ?
Ans: inactive

Q: How did this test come out for COc1ccc(C(=O)C(Br)C(Br)C(=O)O)cc1 (stereo not drawn) ?
Ans: inactive
